Molecular target: hPD-L1 (antigen of the Biacore assay) (human, UniProt Q9NZQ7 19-238, limits assumed)
Sequence (Q9NZQ7 19-238 limits assumed): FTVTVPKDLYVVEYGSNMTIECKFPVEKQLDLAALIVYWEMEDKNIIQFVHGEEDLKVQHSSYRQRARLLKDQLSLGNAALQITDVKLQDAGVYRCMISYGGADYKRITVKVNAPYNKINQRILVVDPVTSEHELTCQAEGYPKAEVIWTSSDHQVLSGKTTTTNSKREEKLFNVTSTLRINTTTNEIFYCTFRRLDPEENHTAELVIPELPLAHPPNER
Assay: SPR (Biacore), antibody captured on anti-human Fc, antigen in flow
property: kon (M⁻¹ s⁻¹)
// units = M⁻¹ s⁻¹; emit number, no label

The binder listed as 23A11-H3L5 (antibody, V domains shown, Human IgG1 constant region with N297A; biotinylated in the alanine-scan ELISA; also called 23A11-H3L5-bio; humanized 23A11) VH: LVQLVQSGAEVKKPGASVKLSCKASGYIFTTYWIHWVKQRPGQGLEWIGMIQPNSGGTKYNDQFKNRATLTVDKSISTAYMELSRLTSDDTAVYYCARGAGTVDYFDYWGQGTTLSISS VL: DIVLTQSPASLAVSVGQRATITCRASESVDIYGNSFMHWYQQKPGQAPKLLIYRASNLESGIPARFSGSGSRTDFTLTINPVEANDTATYYCQQSNDDPYTFGGGTKLETK has a reported kon of 517000
